# Tested on: HCT-116 colon
# Run description: NCI-60 one-dose screen, 48 h
# Cond: 10 µM unless noted
Compounds without any hit were thinned out: in the full panel of roughly 83,000, 20% have a hit. Active and inactive are the calls of the source. The calls were made as follows: active = growth percent below 10; inactive = the rest.
I would appreciate it if you answered using one of these outcomes: Y (active), N (inactive)

Which result was noted for this molecule in the test: COC1=CC(c2ccc[nH]2)=N/C1=C\c1[nH]c(C)c(C(=O)CCC(=O)Oc2ccc3c(c2)CCC2C3CC[C@]3(C)[C@@H](O)CC[C@@H]23)c1C (stereo partly specified) Y

Queued: Cc1ccc(-c2csc3nc(C)c(CCCl)c(=O)n23)cc1 N

Queued: COc1cc(CCn2nnc3c(Nc4ccc(N5CCOCC5)cc4)ncnc32)cc(OC)c1 N

Queued: O=C(CNc1c(Cl)cccc1Cl)Nc1ccc(-c2nc3ccccc3s2)cc1 N

Queued: O=C(O)c1cccc([N+](=O)[O-])c1/C=C/c1ccccc1 N

Queued: C/C(=N\NC(=O)CC#N)c1cc2cc(Cl)ccc2o1 N

Queued: CCCCC[C@@H]1Cc2cc(O)c(C(=O)O)c3c2[C@H](C[C@@]2(CCCO2)O3)O1 N

Queued: O=C1CCCCN1CCCCC#Cc1ccccc1C#Cc1ccccn1 N

Queued: CN(C)c1nc(N)c(N=O)c(N)n1 N

Queued: OCc1c(-c2ccccc2)nc2sccn12 N

Queued: Cn1c(-c2nonc2NC(=O)c2ccc(F)cc2)nc2ccccc21 N

Queued: COc1ccc(OC)c(-c2ccc(-c3ccccc3N)c3[nH]c4ccccc4c23)c1 N

Queued: CCN(CC)CCCNc1nc(C)cc(Nc2ccc3nc(C)cc(N)c3c2)n1 N

Queued: CCC1CCc2nc3sc(C(=O)Nc4cccc(C)c4)c(N)c3cc2C1 (stereo unspecified) N

Queued: CCC1=C[C@@H]2CN(C1)Cc1c([nH]c3ccccc13)[C@@](C(=O)OC)(c1cc3c(cc1OC)N(C=O)[C@H]1[C@@](O)(C(=O)OC)[C@H](OC(C)=O)[C@]4(CC)[C@@H]5C[C@@H]5CN5CC[C@]31[C@@H]54)C2 Y

Queued: Nc1nc(-c2ccccc2)cs1 N

Queued: O=C(/C=C/CN1CCOCC1)Nc1cc2c(Nc3ccc(F)c(Cl)c3F)ncnc2cc1OCCOC(F)F N

Queued: COc1ccc(/C=C\c2cc(OC)c(OC)c(OC)c2)c(NS(=O)(=O)c2ccc(C(C)(C)C)cc2)c1O N

Queued: c1cncc(CNc2ccccc2-c2nnc(Nc3ccc4c(c3)OCCO4)o2)c1 Y

Queued: CN(C)C/C=C/C(=O)Nc1cc2c(Nc3cccc(Cl)c3F)ncnc2cc1OCCOC(F)F N

Queued: CCC(=O)Oc1cc(/C=C/C(=O)O[C@H]2C[C@H]3CN4CCc5c([nH]c6cc(OC)ccc56)[C@@H]4C[C@@H]3[C@@H](C(=O)OC)[C@@H]2OC)ccc1OC N
